Listed below: vessel count % control values for each entry.
Tested on: in vivo angiogenesis, blood vessel count
Assay: reduction of blood vessel formation in vivo – HTS, in vivo study (AID 732);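 further: zebrafish embryos dosed at one day post fertilization; 0% = reference inhibitor and 100% = plate mean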
Settings: stronger effect = lower value;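 tested at 30 µM in the well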
Active and inactive are the calls of the source. How the calls were made is not given here.

| MOLECULE | vessel count % control |
| --- | --- |
| CC(C(O)c1ccc(O)cc1)N1CCC(Cc2ccccc2)CC1 (stereo unspecified) | 0% (inactive) |
| CCCCCCCCCCCCCCCCCCOC[C@H](COP(=O)([O-])OCC[N+](C)(C)C)OC | 97.5% (inactive) |
| C[C@]12CCC(=O)C=C1CC[C@@H]1[C@@H]2[C@@H](O)C[C@@]2(C)[C@H]1CC[C@]2(O)C(=O)COC(=O)CCC(=O)O | 98.7% (inactive) |
| COc1cc(C(=O)OCCCN2CCCN(CCCOC(=O)c3cc(OC)c(OC)c(OC)c3)CC2)cc(OC)c1OC | 116% (inactive) |
| C[N+](C)(C)CC#CCOC(=O)Nc1cccc(Cl)c1 | 81.2% (inactive) |
| Cc1ccccc1N1CCN(S(=O)(=O)C[C@]23CCC(CC2NC(=O)[C@@H](N)CCS(C)(=O)=O)C3(C)C)CC1 (stereo partly specified) | 107% (inactive) |
| NCCS(=O)O | 107% (inactive) |
| COc1cc(C[C@@H](C)N)c(OC)cc1I | 93.2% (inactive) |
| CN1C2CCC1CC(OC(c1ccccc1)c1ccc(Cl)cc1)C2 (stereo unspecified) | 98.7% (inactive) |
| CC(C)NCC(O)COc1cccc2ccccc12 (stereo unspecified) | 117% (inactive) |
| CC(C)(Oc1ccc(C2CC2(Cl)Cl)cc1)C(=O)O (stereo unspecified) | 96.9% (inactive) |
| O=Nc1c(-c2c(O)[nH]c3ccc(F)cc23)[nH]c2ccccc12 | 48.1% (inactive) |
| CCCN(CCc1ccccc1)C1CCc2c(O)cccc2C1 (stereo unspecified) | 88.9% (inactive) |
| NS(=O)(=O)c1cc2c(cc1Cl)NC(C1CC3C=CC1C3)NS2(=O)=O (stereo unspecified) | 107% (inactive) |
| CC[N+](CC)(CC)CC | 112% (inactive) |
| NC(=O)N1c2ccccc2C=Cc2ccccc21 | 96.4% (inactive) |
| Cc1nc2c(OCc3ccccc3)cccn2c1CC#N | 120% (inactive) |
| C[C@]12CCC(=O)C=C1CC[C@@H]1[C@@H]2C(=O)C[C@@]2(C)[C@H]1CC[C@]2(O)C(=O)CO | 126% (inactive) |
| C[N+](C)(C)CCOC(=O)CBr | 95.6% (inactive) |
| Nc1ncnc2c1ncn2[C@@H]1O[C@H](CO)[C@H](O)C1O (stereo partly specified) | 105% (inactive) |
| CN(CCOc1ccc(C[C@H](Nc2ccccc2C(=O)c2ccccc2)C(=O)O)cc1)c1ccccn1 | 100% (inactive) |

----------
Test system: in vivo angiogenesis, blood vessel count
Test: reduction of blood vessel formation in vivo – HTS, in vivo study (AID 732);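 further: zebrafish embryos dosed at one day post fertilization; 0% = reference inhibitor and 100% = plate mean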
Settings: stronger effect = lower value;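 tested at 30 µM in the well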
Listed below: vessel count % control values for each entry.
MEASUREMENT NAME: vessel count % control (%)

| COMPOUND | MEASUREMENT NAME | REPORTED RESULT |
| --- | --- | --- |
| CCCNC(=O)NS(=O)(=O)c1ccc(Cl)cc1 | vessel count % control | 124 |
| C/C=C(/C)C(=O)O[C@H]1C(C)=C2[C@H]([C@@H]1OC(=O)CCCCCCC)[C@@](C)(OC(C)=O)C[C@H](OC(=O)CCC)[C@@]1(O)[C@H]2OC(=O)[C@@]1(C)O | vessel count % control | 0 |
| CN1CCN(CCCN2c3ccccc3Sc3ccc(C(F)(F)F)cc32)CC1 | vessel count % control | 105 |
| CC(NC(C)(C)C)C(=O)c1cccc(Cl)c1 (stereo not drawn) | vessel count % control | 71.1 |
| Cn1cc(C2=C(c3ccc(Cl)cc3Cl)C(=O)NC2=O)c2ccccc21 | vessel count % control | 0 |
| c1ccc2c(c1)CCCC2C1=NCCN1 (stereo not drawn) | vessel count % control | 76 |
| CCCn1c(=O)c2[nH]c(C3CCCC3)nc2n(CCC)c1=O | vessel count % control | 78.9 |
| NC(N)=NC(=O)Cc1c(Cl)cccc1Cl | vessel count % control | 119 |
| CSc1ccc2c(c1)N(CCC1CCCCN1C)c1ccccc1S2 (stereo not drawn) | vessel count % control | 102 |
| N[C@@H](COP(=O)(O)O)C(=O)O | vessel count % control | 105 |
| Cc1nc(N=Nc2ccc(C(=O)O)cc2)c(COP(=O)(O)O)c(C=O)c1O | vessel count % control | 93.9 |
| C[C@]12CC[C@H](O)CC1=CC[C@@H]1[C@@H]2CC[C@]2(C)C(=O)CC[C@@H]12 | vessel count % control | 106 |
| C#CCN(C)[C@@H](C)Cc1ccccc1 | vessel count % control | 74.7 |
| CC(N=C(NC#N)Nc1ccncc1)C(C)(C)C (stereo not drawn) | vessel count % control | 98.9 |
| CCOC(=O)Nc1ccc(NCc2ccc(F)cc2)nc1N | vessel count % control | 83.6 |
| CCn1cc(C(=O)O)c(=O)c2ccc(Cc3ccccc3)nc21 | vessel count % control | 108 |
| CC(N)=O | vessel count % control | 108 |
| CC[C@@H]1Cc2cc(O)ccc2C2=C1c1ccc(O)cc1C[C@H]2CC | vessel count % control | 99.8 |
| CNc1ccc2oc(C[C@H]3O[C@@]4(CC[C@H]3C)O[C@H]([C@H](C)C(=O)c3ccc[nH]3)[C@H](C)C[C@H]4C)nc2c1C(=O)O | vessel count % control | 0 |
| O=[N+]([O-])c1cccc2c(Br)[nH]nc12 | vessel count % control | 99.9 |
| C#CCN(C)Cc1ccccc1 | vessel count % control | 91.4 |
| CC(=O)O[C@H]1C[C@@H]2CC[C@@H]3[C@H](CC[C@@]4(C)[C@H]3C[C@H]([N+]3(C)CCCCC3)[C@@H]4OC(C)=O)[C@@]2(C)C[C@@H]1[N+]1(C)CCCCC1 | vessel count % control | 98 |
| C[N+]1(C)CCN(c2ccccc2)CC1 | vessel count % control | 89.3 |
| Fc1ccc(C(OCCCc2cnc[nH]2)c2ccc(F)cc2)cc1 | vessel count % control | 89.2 |
| CC(N)c1cccc(Cl)c1Cl (stereo not drawn) | vessel count % control | 89.7 |
| C=CCN1CCc2cccc3c2[C@H]1Cc1ccc(O)c(O)c1-3 | vessel count % control | 113 |
| N[C@H](C(=O)O)c1cc(O)cc(O)c1 | vessel count % control | 108 |
| O=C(O)C1CCNCC1 | vessel count % control | 99.7 |
| OCC1O[C@H](O)C(Cl)C(O)C1O (stereo partly drawn) | vessel count % control | 100 |
| O=C(O)CNC(=O)C(CS)Cc1ccccc1 (stereo not drawn) | vessel count % control | 117 |
| NC(=O)COc1c(F)cc(SCCNS(=O)(=O)c2ccccc2)cc1F | vessel count % control | 116 |
| S=C(S)OC1CC2CC1C1CCCC21 (stereo not drawn) | vessel count % control | 86.8 |
| CCCCCCCCCCCCCCCC(=O)OC(CC(=O)O)C[N+](C)(C)C (stereo not drawn) | vessel count % control | 92 |
| CCC1(c2ccc(N)cc2)CCC(=O)NC1=O (stereo not drawn) | vessel count % control | 98.8 |
| COC(=O)c1c(-c2cc(OC)c(OC)c(OC)c2)c2ccc(OCc3ccccn3)cc2c(=O)n1-c1ccc(N)cc1 | vessel count % control | 109 |
| N[C@H](CO)C(=O)O | vessel count % control | 105 |
| CC(COc1ccccc1)N(CCCl)Cc1ccccc1 (stereo not drawn) | vessel count % control | 139 |
| Nc1nc(N)c2nc(-c3ccccc3)c(N)nc2n1 | vessel count % control | 109 |
| COC(=O)c1cc2c(cn1)[nH]c1ccccc12 | vessel count % control | 92.7 |
| CCN(Cc1ccncc1)C(=O)C(CO)c1ccccc1 (stereo not drawn) | vessel count % control | 114 |
| CC(C)COC(=O)OCN1C(=O)CN(CCN2CC(=O)N(COC(=O)OCC(C)C)C(=O)C2)CC1=O | vessel count % control | 104 |
| COc1cc2c(cc1C(F)(F)F)N(C(=O)Nc1cc(F)cc(-c3cccnc3)c1)CC2 | vessel count % control | 95.3 |
| CN(C)CCC(c1ccccc1)c1ccccn1 (stereo not drawn) | vessel count % control | 109 |

----------
Listed below: vessel count % control values for each entry.
Test system: in vivo angiogenesis, blood vessel count
Experiment: reduction of blood vessel formation in vivo – HTS, in vivo study (AID 732);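 further: zebrafish embryos dosed at one day post fertilization; 0% = reference inhibitor and 100% = plate mean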
Settings: stronger effect = lower value;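 tested at 30 µM in the well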
MEASUREMENT NAME: vessel count % control (%)

| COMPOUND | SYSTEM | MEASUREMENT NAME | REPORTED RESULT |
| --- | --- | --- | --- |
| CC(C)C[C@H](NC(=O)[C@@H](O)[C@H](N)Cc1ccccc1)C(=O)O | in vivo angiogenesis, blood vessel count | vessel count % control | 123 |
| COc1cc(-c2ccc(=O)[nH]n2)ccc1OC(F)F | in vivo angiogenesis, blood vessel count | vessel count % control | 75.5 |
| COc1ccc(-n2nc(C(F)(F)F)cc2-c2ccc(Cl)cc2)cc1 | in vivo angiogenesis, blood vessel count | vessel count % control | 126 |
| CCCCN1CCC(COC(=O)c2cc(Cl)c(N)c3c2OCCO3)CC1 | in vivo angiogenesis, blood vessel count | vessel count % control | 105 |
| NC(=O)c1ncn([C@@H]2O[C@H](CO)[C@@H](O)[C@H]2O)n1 | in vivo angiogenesis, blood vessel count | vessel count % control | 63.2 |
| O=C(O)CCC(NC(=O)c1ccccc1C(=O)O)C(=O)O (stereo not drawn) | in vivo angiogenesis, blood vessel count | vessel count % control | 103 |
| CCCN(CCC)[C@@H]1CCc2c(F)ccc(O)c2C1 | in vivo angiogenesis, blood vessel count | vessel count % control | 78.7 |
| COc1ccc2c(c1OC)C(=O)O[C@H]2[C@@H]1c2cc3c(cc2CCN1C)OCO3 | in vivo angiogenesis, blood vessel count | vessel count % control | 116 |
| CCn1nc(C(=O)O)c(=O)c2cc3c(cc21)OCO3 | in vivo angiogenesis, blood vessel count | vessel count % control | 102 |
| CC(C)Cc1ccc(C(C)C(=O)O)cc1 (stereo not drawn) | in vivo angiogenesis, blood vessel count | vessel count % control | 138 |
| C[N+]1(C)C2CCC1CC(OC(=O)c1c[nH]c3ccccc13)C2 (stereo not drawn) | in vivo angiogenesis, blood vessel count | vessel count % control | 99.8 |
| N#C/C(=C\c1ccc(O)c(O)c1)C(=O)NCCCc1ccccc1 | in vivo angiogenesis, blood vessel count | vessel count % control | 137 |
| CC(C(=O)O)c1ccc(CC2CCCC2=O)cc1 (stereo not drawn) | in vivo angiogenesis, blood vessel count | vessel count % control | 113 |
| O=C1C(c2c(O)[nH]c3c(Cl)ccc(Cl)c23)=Nc2ccc(Br)cc21 | in vivo angiogenesis, blood vessel count | vessel count % control | 121 |
| COc1cc2nc(N3CCN(C(=O)C4CCCO4)CC3)nc(N)c2cc1OC (stereo not drawn) | in vivo angiogenesis, blood vessel count | vessel count % control | 83.3 |
| CCCN(CCC)[C@@H]1CCc2ccc(O)cc2C1 | in vivo angiogenesis, blood vessel count | vessel count % control | 93.2 |
| NC(CP(=O)(O)O)C(=O)O (stereo not drawn) | in vivo angiogenesis, blood vessel count | vessel count % control | 103 |
| CSc1ccc(C(=O)c2[nH]c(=O)[nH]c2C)cc1 | in vivo angiogenesis, blood vessel count | vessel count % control | 76.7 |
